Reported MIC values are given for each entry in this list.
# Tested on: Staphylococcus aureus subsp. aureus (ATCC29213)
# method.description: MIC, broth microdilution (CLSI), Staphylococcus aureus ATCC29213
# Type: cell-based
# settings: Staphylococcus aureus, ATCC29213, Table XIII; read-out: S. aureus ATCC 29213 MIC
Where a name gives a salt, the structure may show the parent alone.
Unit µg/mL implied. Number only.

molecule: Cc1cccc(C(CCNCCCN)c2cn(C3CC4CCC3C4)c3ccccc23)c1.Cl.Cl (centres unmarked)
MIC (µg/mL): 8
--
molecule: Cl.Cl.NCCCNCCC(c1cncc2ccccc12)c1cn(C2CCCCC2)c2ccccc12 (centres unmarked)
MIC (µg/mL): 8
--
molecule: CCCCCCCCn1cc(C(CCNCCCN)C2CCCCC2)c2cc(C#N)ccc21.Cl.Cl (centres unmarked)
MIC (µg/mL): 2
--
molecule: Cc1cccc(C(CCNC2CCC(N)CC2)c2cn(CC3CCCCCC3)c3ccccc23)c1 (centres unmarked) [Compound 245, hydrochloride salt]
MIC (µg/mL): 4

Query molecule follows.
Ask: Which MIC value belongs to CNCCCNCCC(c1cccc(C)c1)c1cn(C2CCCCC2)c2ccccc12.Cl.Cl (centres unmarked) ?
Result: 8

====

So I've got MIC readings for Staphylococcus aureus (ATCC25923), take a look.
Where a name gives a salt, the structure may show the parent alone.
Unit µg/mL implied. Number only.

molecule: Cc1ccccc1-c1ccc2c(c1)c(CCN[C@H]1CC[C@H](N)CC1)cn2CC1CCCCC1 [Compound 244, hydrochloride salt]
recorded.result: 2

molecule: Cl.N[C@H]1CC[C@H](NC(=O)CC(c2cncc3ccccc23)c2cn(CC3CCCCC3)c3ccccc23)CC1 (stereo partly shown)
recorded.result: 5

molecule: O=C(CC(c1cn(CC2CCCCC2)c2ccccc12)C1CCNCC1)NC1CCNCC1 (stereo not shown) [Compound 106, hydrochloride salt]
recorded.result: 512

Query molecule follows.
Ask: Which MIC value belongs to Cc1cccc(C(CC(=O)NCCC2CCNCC2)c2cn(Cc3ccccc3)c3ncccc23)c1.Cl (stereo not shown) ?
Result: 265

====

# Tested on: Staphylococcus aureus (ATCC25923)
Reported log10(MIC) values are given for each entry in this list.
Form field - Quantity: MIC; Unit: µg/mL; Scale: log10

molecule: Cc1cccc(C(CC(=O)NC2CCC(N)CC2)c2cn(CC3CCCCC3)c3ccc(-c4ccccc4Cl)cc23)c1.Cl (stereo not drawn) [Compound 224]
recorded.result: 0.70

Query molecule follows.
Ask: API: value(readout=log10(MIC), system=Staphylococcus aureus (ATCC25923)) for record Cc1cccc(C(CC(=O)N[C@H]2CC[C@H](N)CC2)c2cn(CC3CCCCC3)c3ccccc23)c1.Cl (stereo partly drawn) [Compound 104]
Result: 0.90

====

# System: Staphylococcus aureus (ATCC25923)
Counter-ions that a name gives are not always drawn.
Field 'label' (enum: label 1 / label 0). Set to label 1 when MIC is strictly under 8 µg/mL; else label 0.

Record excerpt, results attached:
compound: CCOP(=O)(NC1CCC(NC(=O)CC(c2cccc(C)c2)c2cn(CC3CCCCC3)c3ccccc23)CC1)OCC (stereo not shown)
assay.system: Staphylococcus aureus (ATCC25923)
class.assignment: label 0
//
compound: Cc1cccc(C(CC(=O)N[C@H]2CC[C@H](N)CC2)c2cn(Cc3ccccc3)c3ncccc23)c1.Cl (stereo partly shown)
assay.system: Staphylococcus aureus (ATCC25923)
class.assignment: label 0
//
compound: N[C@H]1CC[C@H](NC(=O)CC(c2cn(CC3CCCCC3)c3ccccc23)C2CCNCC2)CC1 (stereo partly shown) [Compound 107, hydrochloride salt]
assay.system: Staphylococcus aureus (ATCC25923)
class.assignment: label 0
//
compound: COc1cc(OC)cc(C(CC(=O)N[C@H]2CC[C@H](N)CC2)c2cn(CC3CCCCC3)c3ccccc23)c1.Cl (stereo partly shown)
assay.system: Staphylococcus aureus (ATCC25923)
class.assignment: label 0
//
compound: N[C@H]1CC[C@H](NCCCc2cn(CC3CCCCC3)c3ccc(Br)cc23)CC1 [Compound 211, hydrochloride salt]
assay.system: Staphylococcus aureus (ATCC25923)
class.assignment: label 1

Ask: Quick check: MIC of Cc1cccc(C(CCNC2CCNCC2)c2cn(CC3CCOCC3)c3ccc(Br)cc23)c1 (stereo not shown) [Compound 293, hydrochloride salt] under 8 µg/mL?
Result: label 1

Ask: Quick check: MIC of Cl.NC1CCC(C(=O)N2CCC(c3cn(CC4CCCCC4)c4ccccc34)CC2)CC1 (stereo not shown) under 8 µg/mL?
Result: label 0

Ask: Quick check: MIC of Cl.N[C@H]1CC[C@H](NC(=O)Cc2cn(CC3CCCCC3)c3ccc(Br)cc23)CC1 under 8 µg/mL?
Result: label 0

Ask: Quick check: MIC of Cc1cccc(C(CC(=O)NC2CCNCC2)c2cn(CC3CCCCC3)c3ccc(C(=O)O)cc23)c1.Cl (stereo not shown) under 8 µg/mL?
Result: label 0

Ask: Quick check: MIC of Cc1cccc(C(CCNCC2CNCCO2)c2cn(CC3CCCCC3)c3ccc(Br)cc23)c1.Cl (stereo not shown) under 8 µg/mL?
Result: label 1

Ask: Quick check: MIC of Cc1cccc(-c2ccc3c(c2)c(CCC(=O)NC2CCC(N)CC2)cn3CC2CCCCC2)c1.Cl (stereo not shown) under 8 µg/mL?
Result: label 1

====

So I've got MIC readings for Staphylococcus aureus (ATCC25923), take a look.
Structures can show the parent of a compound that is named as a salt.
Unit µg/mL implied. Number only.

Solved entries:
molecule: Cc1cccc(C(CC(=O)N[C@H]2CC[C@@H](N)CC2)c2cn(Cc3ccccc3)c3ncccc23)c1.Cl (stereo partly shown)
MIC [µg/mL]: 258
//
molecule: Cc1cccc(C(CC(=O)NC2CCC(N)CC2)c2cn(CC3CCCCC3)c3ccc(C4=CCNCC4)cc23)c1 (stereo not shown) [Compound 228, hydrochloride salt]
MIC [µg/mL]: 10
//
molecule: Cc1cccc(C(CCNC2CCNCC2)c2cn(CC3CCOCC3)c3ccccc23)c1 (stereo not shown) [Compound 292, hydrochloride salt]
MIC [µg/mL]: 33

Query molecule follows.
Ask: API: value(readout=MIC, system=Staphylococcus aureus (ATCC25923)) for record Cc1cccc(C(CC(=O)N2CCC(N)CC2)c2cn(CC3CCCCC3)c3ccccc23)c1.Cl (stereo not shown)
Result: 8

====

# System: Staphylococcus aureus subsp. aureus (ATCC29213)
# method.description: MIC, broth microdilution (CLSI), Staphylococcus aureus ATCC29213
# Format: cell-based
# settings: Staphylococcus aureus, ATCC29213, Table XIII; read-out: S. aureus ATCC 29213 MIC
Reported MIC values are given for each entry in this list.
Unit µg/mL implied. Number only.

compound: Cc1cccc(C(CCNCCCN)c2cn(C3CCNCC3)c3ccccc23)c1.Cl.Cl.Cl (stereo not shown)
MIC / µg/mL: 16

compound: Cl.Cl.c1cncc(C(CCNC2CCNCC2)c2cn(CC3CCCCC3)c3ccccc23)c1 (stereo not shown)
MIC / µg/mL: 128

compound: Cl.Cl.NCCCNCCC(c1cn(C2CCCCC2)c2ccccc12)C1CCCCC1 (stereo not shown)
MIC / µg/mL: 4

Ask: Which MIC value belongs to Cl.Cl.N#Cc1ccc2c(c1)c(C(CCNC1CCNCC1)C1CCCCC1)cn2C1CCCCC1 (stereo not shown) ?
Result: 8

Ask: Which MIC value belongs to Cl.Cl.N#Cc1ccc2c(C(CCNCCCN)c3cccc(OC(F)(F)F)c3)cn(C3CCCCC3)c2c1 (stereo not shown) ?
Result: 4

Ask: Which MIC value belongs to Cc1cccc(C(CCNCCCO)c2cn(C3CCCCC3)c3ccccc23)c1 (stereo not shown) ?
Result: 16

Ask: Which MIC value belongs to Cl.Cl.NCCCNCCC(c1ccncc1)c1cn(C2CCCCC2)c2ccccc12 (stereo not shown) ?
Result: 32

Ask: Which MIC value belongs to Cl.Cl.c1ccc2c(c1)c(C(CCNC1CCNCC1)c1ccncc1)cn2C1CC2CCC1C2 (stereo not shown) ?
Result: 32

Ask: Which MIC value belongs to Cc1cccc(C(CC(=O)NC2CCNCC2)c2cn(CCC3CCCCC3)c3ccccc23)c1.Cl (stereo not shown) ?
Result: 4

Ask: Which MIC value belongs to Cl.Cl.NCCCNCCC(c1cn(C2CCCCC2)c2ccc(Br)cc12)C1CCCCC1 (stereo not shown) ?
Result: 2

====

Counter-ions that a name gives are not always drawn.
So I've got MIC readings for Staphylococcus aureus (ATCC25923), take a look.
State the result as a value with its unit after it.

compound: Cl.O=C(CC(c1cscn1)c1cn(CC2CCCCC2)c2ccccc12)NC1CCNCC1 (stereo not shown)
MIC: 128 µg/mL

Ask: Which MIC value belongs to NC1CCC(NCCC(c2cc(Cl)cc(Cl)c2)c2cn(CC3CCCCC3)c3ccccc23)CC1 (stereo not shown) [Compound 171, hydrochloride salt] ?
Result: 2 µg/mL

Ask: Which MIC value belongs to N[C@H]1CC[C@H](NC2CCC(c3cn(CC4CCCCC4)c4ccc(Br)cc34)CC2)CC1 (single isomer, unassigned) [Compound 265, hydrochloride salt] ?
Result: 2 µg/mL

Ask: Which MIC value belongs to Cc1cccc(-c2ccc3c(c2)c(CCCN[C@H]2CC[C@H](N)CC2)cn3CC2CCCCC2)c1 [Compound 207, hydrochloride salt] ?
Result: 4 µg/mL

Ask: Which MIC value belongs to Cc1cccc(C(CC(=O)NC2CCC(N)CC2)c2cn(CC3CCCCC3)c3ccc(-c4ccncc4)cc23)c1 (stereo not shown) [Compound 188, hydrochloride salt] ?
Result: 5 µg/mL

Ask: Which MIC value belongs to Cl.NC1CCC(NC(=O)Cc2cn(CC3CCCCC3)c3ccc(-c4ccccc4OC(F)(F)F)cc23)CC1 (stereo not shown) ?
Result: 9 µg/mL

Ask: Which MIC value belongs to Cc1cccc(C(CC(=O)N[C@H]2CC[C@@H](N)CC2)c2cn(CC3CCCCC3)c3ccccc23)c1.Cl (stereo partly shown) ?
Result: 8 µg/mL
